System: Rad30
Assay: Yeast two hybrid (Y2H) analysis of PCNA-partner interaction
Format: binding
Conditions: YRG2 strain, growth on selective agar plates lacking histidine; growth similar to WT PCNA denoted as 1
experimental.readout: Binding of PCNA Mutants to Target Partners: Rad30 (Y2H)

molecule	observed.result
pol30-Rad27E31: PCNA mutant evolved for Rad27, IDCL sequence DGDYDVLKIREL (protein, left off: Gal4 activation domain, end not stated, kept) MLEAKFEEASLFKRIIDGFKDCVQLVNFQCKEDGIIAQAVDDSRVLLVSLEIGVEAFQEYRCDHPVTLGMDLTSLSKILRCGNNTDTLTLIADNTPDSIILLFEDTKKDRIAEYSLKLMDGDYDVLKIRELQYDSTLSLPSSEFSKIVRDLSQLSDSINIMITKETIKFVADGDIGSGSVIIKPFVDMEHPETSIKLEMDQPVDLTFGAKYLLDIIKGSSLSDRVGIRLSSEAPALFQFDLKSGFLQFFLAPKFNDEE	1
